Molecular target: recombinant human 17β-HSD2 (Homo sapiens)
Construct: made in house; host or cells: Sd9 (Sf9) insect cells, baculovirus (Bac to Bac Expression System); fractionated cell extract
Sequence (P37059 whole entry): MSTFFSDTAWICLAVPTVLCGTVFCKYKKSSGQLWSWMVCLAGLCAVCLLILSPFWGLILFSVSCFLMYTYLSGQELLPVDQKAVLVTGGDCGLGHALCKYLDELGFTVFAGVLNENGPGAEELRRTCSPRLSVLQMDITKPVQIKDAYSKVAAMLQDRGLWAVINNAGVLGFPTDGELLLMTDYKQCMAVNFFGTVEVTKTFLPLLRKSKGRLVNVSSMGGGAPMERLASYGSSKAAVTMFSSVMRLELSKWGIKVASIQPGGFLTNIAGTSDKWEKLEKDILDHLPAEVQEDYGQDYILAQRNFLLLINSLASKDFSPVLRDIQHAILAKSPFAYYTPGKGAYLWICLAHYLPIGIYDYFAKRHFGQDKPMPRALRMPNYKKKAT
Assay: Inhibition of recombinant human 17β-HSD2 (conversion of 3H-estradiol to estrone, HPLC)
Format: biochemical
Conditions: inhibitor 1 μM; 50 nM estradiol, 1 mM NADH, 30 min at RT
readoutType: inhibition at 1 µM (%)
Field format: number, assumed %, no unit text.

Request body: readout inhibition at 1 µM, system recombinant human 17β-HSD2 (Homo sapiens), query Cc1cnc(NC(=O)CC[C@@H]2C(=C\O)/C(=N\O)[C@@]3(C)CCC4c5ccc(O)c(Br)c5CCC4C23)s1 (some centres unmarked) . Return the value.
7

Request body: readout inhibition at 1 µM, system recombinant human 17β-HSD2 (Homo sapiens), query Cc1cnc(NC(=O)CC[C@@H]2C/C(=N\CC(C)C)[C@@]3(C)CCC4c5ccc(O)cc5CCC4C23)s1 (some centres unmarked) . Return the value.
7

Request body: readout inhibition at 1 µM, system recombinant human 17β-HSD2 (Homo sapiens), query CCO/N=C1\C[C@@H](CCC(=O)Nc2ncc(C)s2)C2C3CCc4cc(O)ccc4C3CC[C@]12C (some centres unmarked) . Return the value.
3

Request body: readout inhibition at 1 µM, system recombinant human 17β-HSD2 (Homo sapiens), query Cc1cnc(NC(=O)CC[C@@H]2C/C(=N\OCC(=O)O)[C@@]3(C)CCC4c5ccc(O)cc5CCC4C23)s1 (some centres unmarked) . Return the value.
0

Request body: readout inhibition at 1 µM, system recombinant human 17β-HSD2 (Homo sapiens), query Cc1cnc(NC(=O)CC[C@@H]2C/C(=N\NC(N)=O)[C@@]3(C)CCC4c5cc(Br)c(O)c(Br)c5CCC4C23)s1 (some centres unmarked) . Return the value.
1

Request body: readout inhibition at 1 µM, system recombinant human 17β-HSD2 (Homo sapiens), query COCC/N=C1\C[C@@H](CCC(=O)Nc2ncc(C)s2)C2C3CCc4cc(O)c(C(C)(C)C)cc4C3CC[C@]12C (some centres unmarked) . Return the value.
30

Request body: readout inhibition at 1 µM, system recombinant human 17β-HSD2 (Homo sapiens), query COc1cc2c(cc1/C(C)=N/O)C1CC[C@]3(C)/C(=N/O)C[C@@H](CCC(=O)Nc4ncc(C)s4)C3C1CC2 (some centres unmarked) . Return the value.
3

Request body: readout inhibition at 1 µM, system recombinant human 17β-HSD2 (Homo sapiens), query Cc1cnc(NC(=O)CC[C@@H]2c3c[nH]nc3[C@@]3(C)CCC4c5cc([N+](=O)[O-])c(O)cc5CCC4C23)s1 (some centres unmarked) . Return the value.
7

Request body: readout inhibition at 1 µM, system recombinant human 17β-HSD2 (Homo sapiens), query Cc1cnc(NC(=O)CC[C@@H]2c3c[nH]nc3[C@@]3(C)CCC4c5cc(Br)c(O)c(Br)c5CCC4C23)s1 (some centres unmarked) . Return the value.
13

Request body: readout inhibition at 1 µM, system recombinant human 17β-HSD2 (Homo sapiens), query COc1ccc2c(c1)CCC1C2CC[C@]2(C)c3n[nH]cc3[C@@H](CCC(=O)Nc3ncc(C)s3)C12 (some centres unmarked) . Return the value.
0

Request body: readout inhibition at 1 µM, system recombinant human 17β-HSD2 (Homo sapiens), query Cc1cnc(NC(=O)CC[C@@H]2C(=C\O)/C(=N\O)[C@@]3(C)CCC4c5ccc(O)cc5CCC4C23)s1 (some centres unmarked) . Return the value.
2

Request body: readout inhibition at 1 µM, system recombinant human 17β-HSD2 (Homo sapiens), query Cc1cnc(NC(=O)CC[C@@H]2c3c[nH]nc3[C@@]3(C)CCC4c5ccc(O)cc5CCC4C23)s1 (some centres unmarked) . Return the value.
15

Request body: readout inhibition at 1 µM, system recombinant human 17β-HSD2 (Homo sapiens), query Cc1cnc(NC(=O)CC[C@@H]2C/C(=N\O)[C@@]3(C)CCC4c5ccccc5CCC4C23)s1 (some centres unmarked) . Return the value.
2

Request body: readout inhibition at 1 µM, system recombinant human 17β-HSD2 (Homo sapiens), query CO/N=C1\C[C@@H](CCC(=O)Nc2ncc(C)s2)C2C3CCc4cc(OC)c(I)cc4C3CC[C@]12C (some centres unmarked) . Return the value.
1
